Provenance of the data: patent US12630600B2

Answer each item with its documented hGLP-1R EC50 (pM).
Target: human GLP-1 receptor (human, UniProt P43220)
Experiment: cell-based or functional assay
Starred links: 1 amine or outer side, 2 acyl side, 3 side chain; linkers in the order of their positions; H or OH if unused. Non-standard residues stand in square brackets, D forms with d. Groups on a side chain read outwards from the residue. No end group written: not given here. *: point of attachment. C20 diacid = O=C(O)CCCCCCCCCCCCCCCCCCC(=O)*; C18 diacid = O=C(O)CCCCCCCCCCCCCCCCC(=O)*; γGlu = O=C(O)[C@H](CCC(=O)[*:2])N[*:1]; αMeF = C[C@](N)(Cc1ccccc1)C(=O)O; (PEG)2 = polyethylene glycol 2; PEG4 = NCCOCCOCCOCCOCCC(=O)O; AEEA = NCCOCCOCC(=O)O; Aib = CC(C)(N)C(=O)O
Give bare numbers, in pM.

# count of solved cases: 8
H[Aib]HGS[αMeF]TSDVSK[αMeF]LDSRAAK([AEEA-AEEA-γGlu-γGlu-C20 diacid])D[αMeF]VQ[Aib]IANT-NH2 (not fully specified) [Peptide 282]    1230
H[Aib]HGS[αMeF]TSDVSK[αMeF]LDSRAAK([AEEA-C18 diacid])D[αMeF]VQ[Aib]IANT-NH2 [Peptide 273]    22.1
H[Aib]HGS[αMeF]TSDVSK[αMeF]LDSRAAK([AEEA-AEEA-C20 diacid])D[αMeF]VQ[Aib]IANT-NH2 [Peptide 277]    49.5
H[Aib]HGS[αMeF]TSDVSK[αMeF]LDSR[Aib]AK([AEEA-AEEA-γGlu-γGlu-C18 diacid])D[αMeF]VESIANT-NH2 [Peptide 250]    601
H[Aib]HGS[αMeF]TSDVSK[αMeF]LDSRAAK([γGlu-γGlu-C18 diacid])D[αMeF]VQ[Aib]IANT-NH2 [Peptide 270]    24.4
H[Aib]HGS[αMeF]TSDVSK[αMeF]LDSRAAK([AEEA-AEEA-γGlu-C18 diacid])D[αMeF]VE[Aib]IANT-NH2 [Peptide 227]    70.5
H[Aib]HGS[αMeF]TSDVSK[αMeF]LDSRAAK([PEG4-γGlu-C20 diacid])D[αMeF]VQ[Aib]IANT-NH2 [Peptide 267]    65.6
H[Aib]HGS[αMeF]TSDVSK[αMeF]LDSRAAK([(PEG)2-(PEG)2-γGlu-γGlu-C18 diacid])D[αMeF]VQ[Aib]IANT-NH2 [Peptide 258]    34

Now for the binder whose hGLP-1R EC50 (pM) we want.
Request: Reported hGLP-1R EC50 (pM) for H[Aib]QGT[αMeF]TSDVSK[αMeF]LDSRAAK([AEEA-AEEA-γGlu-C18 diacid])D[αMeF]VQ[Aib]IANT-NH2 (not fully specified) [Peptide 321] : what is it?
Result: 22.6
